- protocol notes: xn = mol fraction of the nth substance listed
- test parameters: 298.15 K; 101 kPa; Liquid; Vibrating tube method; x1 = 0.0001
Measured mass density, listed per entry.
Unit kg/m3 implied. Number only.

Consider the worked cases shown below.
{"molecule": "CCCCCCCCn1cc[n+](C)c1.O=S(=O)([N-]S(=O)(=O)C(F)(F)F)C(F)(F)F + CO", "mass density / kg/m3": 791.05}
{"molecule": "CCCCCC[n+]1ccn(C)c1.O=S(=O)([N-]S(=O)(=O)C(F)(F)F)C(F)(F)F + CO", "mass density / kg/m3": 792.92}
{"molecule": "CCCCCCCCCCn1cc[n+](C)c1.O=S(=O)([N-]S(=O)(=O)C(F)(F)F)C(F)(F)F + CO", "mass density / kg/m3": 789.6}

Provide mass density value for the following molecule: CCn1cc[n+](C)c1.O=S(=O)([N-]S(=O)(=O)C(F)(F)F)C(F)(F)F + CO 792.63
